Origin of values: patent US10308916B2

Test system: OATA W58L
Format: biochemical
observation-type: Relative reactivity, OATA W58L (%)
Field format: number, assumed %, no unit text.

C[C@H](N)c1ccccc1 [(S)-α-methylbenzylamine]    100
CC(C)C(N)c1ccccc1 (racemic)    2
COc1ccc([C@H](C)N)cc1 [(S)-4-methoxy-α-methylbenzylamine]    98
CC(N)c1ccc(F)cc1 (centres unmarked)    283
C[C@H](N)C1CC1 [(S)-1-Cyclopropylethylamine]    233

Documented Relative reactivity, OATA W58L of `NCc1ccccc1` : 49

The compound C[C@H](N)c1cccc2ccccc12 [(S)-1-(1-naphthyl)ethylamine] showed Relative reactivity, OATA W58L equal to 2

Form field Relative reactivity, OATA W58L, entry COCC(C)N (centres unmarked) : 119

The compound identified as CCCC[C@H](C)N [(S)-2-aminohexane] registered its Relative reactivity, OATA W58L at 306

Memo: CCCC(C)N (centres unmarked) , reported Relative reactivity, OATA W58L: 272

For CCCCCC[C@H](C)N [(S)-2-aminooctane] the compound record lists Relative reactivity, OATA W58L as 255
